Measured IC50, listed per entry for reference.
Target: purified recombinant HIV RT (Human immunodeficiency virus type 1 group M subtype B)
Construct: purified recombinant HIV RT; purchased Amersham, Arlington Heights, Ill; (Quan-T-RT system)
Test: Purified RT assay, cell-free Quan-T-RT system (scintillation proximity)
Type: biochemical
Settings: IC50 rRT, Table 1 and text; recombinant HIV RT
PROPERTY_LABEL: IC50

COMPOUND	PROPERTY_LABEL	RESULT
CN1CCCC1CCNC(=S)Nc1ccc(Br)cn1 (stereo not drawn)	IC50	> 100 µM
S=C(NCCN1CCOCC1)Nc1ccc(Br)cn1	IC50	> 100 µM
S=C(NCCc1cnc[nH]1)Nc1ccc(Br)cn1	IC50	> 100 µM

====

Target: purified recombinant HIV RT (Human immunodeficiency virus type 1 group M subtype B)
Construct: purified recombinant HIV RT; purchased Amersham, Arlington Heights, Ill; (Quan-T-RT system)
Experiment: Purified RT assay, cell-free Quan-T-RT system (scintillation proximity)
Format: biochemical
Details: Table 1 and text; recombinant HIV RT; read-out: IC90 rRT
PROPERTY_LABEL: IC90

MOLECULE	RESULT
S=C(NCCN1CCOCC1)Nc1ccc(Br)cn1	> 100 µM
CN1CCCC1CCNC(=S)Nc1ccc(Br)cn1 (centres unmarked)	> 100 µM
S=C(NCc1ccco1)Nc1ccc(Br)cn1	> 100 µM
S=C(NCCN1CCCC1)Nc1ccc(Br)cn1	> 100 µM
S=C(NCCc1cnc[nH]1)Nc1ccc(Br)cn1	> 100 µM
